target: NMDA NR1/NR2B receptor (Homo sapiens (Human)); assay: NMDA NR1/NR2B FLIPR calcium assay in HEK293 cells; conditions: glycine/glutamate-induced calcium, read-out: IC50, in vitro NR2B affinity in the FLIPR assay
Sequence (Q13224 27-1484, other chains not shown): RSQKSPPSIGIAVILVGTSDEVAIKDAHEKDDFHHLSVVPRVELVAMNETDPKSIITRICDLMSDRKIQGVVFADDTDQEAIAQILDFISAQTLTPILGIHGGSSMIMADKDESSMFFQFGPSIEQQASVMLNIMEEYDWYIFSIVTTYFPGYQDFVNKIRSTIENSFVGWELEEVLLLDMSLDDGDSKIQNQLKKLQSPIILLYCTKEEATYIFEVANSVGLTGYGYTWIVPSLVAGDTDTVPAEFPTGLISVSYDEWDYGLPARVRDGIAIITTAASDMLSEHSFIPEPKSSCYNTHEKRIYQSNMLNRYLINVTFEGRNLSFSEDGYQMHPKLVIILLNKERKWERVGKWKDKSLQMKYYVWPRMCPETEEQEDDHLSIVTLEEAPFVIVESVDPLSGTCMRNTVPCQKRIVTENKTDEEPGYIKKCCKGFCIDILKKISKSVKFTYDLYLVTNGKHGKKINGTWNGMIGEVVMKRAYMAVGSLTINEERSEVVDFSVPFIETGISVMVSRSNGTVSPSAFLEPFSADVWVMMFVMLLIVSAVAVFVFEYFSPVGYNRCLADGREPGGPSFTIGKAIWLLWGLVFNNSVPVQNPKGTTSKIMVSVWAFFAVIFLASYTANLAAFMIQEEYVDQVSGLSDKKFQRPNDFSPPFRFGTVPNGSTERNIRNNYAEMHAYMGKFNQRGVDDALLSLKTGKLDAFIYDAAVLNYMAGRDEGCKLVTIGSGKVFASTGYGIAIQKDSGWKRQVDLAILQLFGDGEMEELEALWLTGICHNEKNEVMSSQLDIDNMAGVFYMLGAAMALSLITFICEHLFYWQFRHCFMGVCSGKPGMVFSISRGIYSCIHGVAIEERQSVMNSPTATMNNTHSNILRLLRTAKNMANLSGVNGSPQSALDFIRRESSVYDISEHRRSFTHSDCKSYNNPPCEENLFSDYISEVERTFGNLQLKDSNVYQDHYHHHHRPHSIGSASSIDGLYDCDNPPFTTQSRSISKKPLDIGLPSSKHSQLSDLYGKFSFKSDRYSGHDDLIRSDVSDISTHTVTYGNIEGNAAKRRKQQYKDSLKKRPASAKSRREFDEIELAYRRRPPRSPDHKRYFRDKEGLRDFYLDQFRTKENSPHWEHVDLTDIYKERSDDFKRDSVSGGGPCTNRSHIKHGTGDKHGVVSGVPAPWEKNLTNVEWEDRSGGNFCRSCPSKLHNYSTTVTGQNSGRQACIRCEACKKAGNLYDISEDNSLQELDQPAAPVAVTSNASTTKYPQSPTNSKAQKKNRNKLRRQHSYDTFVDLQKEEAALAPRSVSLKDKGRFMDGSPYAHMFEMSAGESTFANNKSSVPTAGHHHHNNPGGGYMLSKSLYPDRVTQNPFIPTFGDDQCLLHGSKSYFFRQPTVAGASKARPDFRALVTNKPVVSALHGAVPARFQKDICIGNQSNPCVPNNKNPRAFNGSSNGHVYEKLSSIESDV
measuredAttribute: IC50 (nM)

molecule="CNC(=O)[C@@H]1CN(Cc2cnc(Oc3c(F)cccc3F)nc2)CCO1 [Example 34]" unitssymbol=nM observedmeasurement=362

[1] CNC(=O)[C@@H]1CN(Cc2cnc(Oc3ccccc3F)nc2)CCO1 [Example 27]
[2] CNC(=O)[C@@H]1CN(Cc2cnc(Oc3ccc(C)cc3C)nc2)CCO1 [Example 22]
[3] CNC(=O)[C@@H]1CN(Cc2cnc(Oc3ccc(Cl)cc3)nc2)CCO1 [Example 25]
Qu. Put the molecules in ascending order of IC50. Kindly provide the labels arranged according to the requested ordering.
Ans. 3, 1, 2
